# Tested on: RPMI 8402
# experimental details: Inhibitory concentration against lymphoblast RPMI 8402 cell line was determined
# Assay type: functional, cell-based
# condition info: Homo sapiens
readout kind: IC50 (nM)

[
  {
    "compound structure": "CCN(CC)CCn1c(=O)c2cc(OC)c(OC)cc2c2cnc3cc4c(cc3c21)OCO4",
    "readout kind": "IC50",
    "meas value": 6
  },
  {
    "compound structure": "COc1cc2c(=O)n(CCN(C(C)C)C(C)C)c3c4cc5c(cc4ncc3c2cc1OC)OCO5",
    "readout kind": "IC50",
    "meas value": 8
  },
  {
    "compound structure": "CCN(CCn1c(=O)c2cc(OC)c(OC)cc2c2cnc3cc4c(cc3c21)OCO4)Cc1ccccc1",
    "readout kind": "IC50",
    "meas value": 77
  },
  {
    "compound structure": "COc1cc2c(=O)n(CCN3CCC(C)CC3)c3c4cc5c(cc4ncc3c2cc1OC)OCO5",
    "readout kind": "IC50",
    "meas value": 30
  },
  {
    "compound structure": "COc1cc2c(=O)n(CCN(Cc3ccccc3)C(C)(C)C)c3c4cc5c(cc4ncc3c2cc1OC)OCO5",
    "readout kind": "IC50",
    "meas value": 850
  },
  {
    "compound structure": "CC[C@@]1(O)C(=O)OCc2c1cc1n(c2=O)Cc2cc3c(CN(C)C)c(O)ccc3nc2-1",
    "readout kind": "IC50",
    "meas value": 21
  },
  {
    "compound structure": "COc1cc2c(=O)n(CCN(Cc3ccccc3)C(C)C)c3c4cc5c(cc4ncc3c2cc1OC)OCO5",
    "readout kind": "IC50",
    "meas value": 300
  },
  {
    "compound structure": "COc1cc2c(=O)n(CCN(C)Cc3ccccc3)c3c4cc5c(cc4ncc3c2cc1OC)OCO5",
    "readout kind": "IC50",
    "meas value": 53
  },
  {
    "compound structure": "CNCCn1c(=O)c2cc(OC)c(OC)cc2c2cnc3cc4c(cc3c21)OCO4",
    "readout kind": "IC50",
    "meas value": 0.3
  }
]

###

# Test system: KB 3-1
# experimental details: Inhibitory concentration against KB3-1 cell line was determined
# Assay type: functional, cell-based
# condition info: Homo sapiens
readout kind: IC50 (nM)

[
  {
    "compound structure": "CCN(CCn1c(=O)c2cc(OC)c(OC)cc2c2cnc3cc4c(cc3c21)OCO4)C(C)C",
    "target entity": "KB 3-1",
    "meas value": 3
  },
  {
    "compound structure": "CNCCn1c(=O)c2cc(OC)c(OC)cc2c2cnc3cc4c(cc3c21)OCO4",
    "target entity": "KB 3-1",
    "meas value": 0.4
  },
  {
    "compound structure": "COc1cc2c(=O)n(CCNCc3ccccc3)c3c4cc5c(cc4ncc3c2cc1OC)OCO5",
    "target entity": "KB 3-1",
    "meas value": 6
  },
  {
    "compound structure": "COc1cc2c(=O)n(CCN(C(C)C)C(C)C)c3c4cc5c(cc4ncc3c2cc1OC)OCO5",
    "target entity": "KB 3-1",
    "meas value": 5
  },
  {
    "compound structure": "COc1cc2c(=O)n(CCN3CCC(C)CC3)c3c4cc5c(cc4ncc3c2cc1OC)OCO5",
    "target entity": "KB 3-1",
    "meas value": 30
  }
]

###

# target entity: DNA topoisomerase 1 (Homo sapiens) (UniProt P11387)
# Sequence (P11387 whole entry): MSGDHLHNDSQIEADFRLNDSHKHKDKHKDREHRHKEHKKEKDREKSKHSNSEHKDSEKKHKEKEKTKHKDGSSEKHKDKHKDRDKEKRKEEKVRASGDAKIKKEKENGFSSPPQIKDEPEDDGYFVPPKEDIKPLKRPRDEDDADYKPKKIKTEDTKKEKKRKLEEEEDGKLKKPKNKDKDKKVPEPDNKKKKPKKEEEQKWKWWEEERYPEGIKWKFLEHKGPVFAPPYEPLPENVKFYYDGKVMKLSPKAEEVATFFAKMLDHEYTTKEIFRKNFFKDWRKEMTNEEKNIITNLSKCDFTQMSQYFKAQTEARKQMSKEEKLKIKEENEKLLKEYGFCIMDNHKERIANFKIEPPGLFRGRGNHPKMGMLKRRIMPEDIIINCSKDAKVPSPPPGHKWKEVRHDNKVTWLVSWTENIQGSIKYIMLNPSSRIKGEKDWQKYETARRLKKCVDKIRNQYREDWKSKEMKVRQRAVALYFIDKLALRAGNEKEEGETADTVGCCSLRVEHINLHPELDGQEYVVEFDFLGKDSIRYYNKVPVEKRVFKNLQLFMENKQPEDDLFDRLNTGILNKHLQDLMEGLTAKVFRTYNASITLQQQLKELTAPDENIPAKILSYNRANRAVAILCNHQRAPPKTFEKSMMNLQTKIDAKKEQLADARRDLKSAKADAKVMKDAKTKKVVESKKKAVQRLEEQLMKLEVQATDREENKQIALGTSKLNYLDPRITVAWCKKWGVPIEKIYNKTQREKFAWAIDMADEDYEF
# experimental details: Relative topoisomerase I-mediated plasmid DNA cleavage compared to topotecan
# Assay type: functional

[
  {
    "compound structure": "COc1cc2c(=O)n(CCN3CCCCC3)c3c4cc5c(cc4ncc3c2cc1OC)OCO5",
    "target entity": "DNA topoisomerase 1 (Homo sapiens) (UniProt P11387)",
    "bound sign": "=",
    "Activity": 0.6
  },
  {
    "compound structure": "COc1cc2c(=O)n(CCNC(C)C)c3c4cc5c(cc4ncc3c2cc1OC)OCO5",
    "target entity": "DNA topoisomerase 1 (Homo sapiens) (UniProt P11387)",
    "bound sign": "=",
    "Activity": 0.3
  },
  {
    "compound structure": "COc1cc2c(=O)n(CCN3CCC(C)CC3)c3c4cc5c(cc4ncc3c2cc1OC)OCO5",
    "target entity": "DNA topoisomerase 1 (Homo sapiens) (UniProt P11387)",
    "bound sign": ">",
    "Activity": 100
  },
  {
    "compound structure": "COc1cc2c(=O)n(CCN3CCCC3)c3c4cc5c(cc4ncc3c2cc1OC)OCO5",
    "target entity": "DNA topoisomerase 1 (Homo sapiens) (UniProt P11387)",
    "bound sign": "=",
    "Activity": 0.3
  },
  {
    "compound structure": "COc1cc2c(=O)n(CCN)c3c4cc5c(cc4ncc3c2cc1OC)OCO5",
    "target entity": "DNA topoisomerase 1 (Homo sapiens) (UniProt P11387)",
    "bound sign": "=",
    "Activity": 0.02
  },
  {
    "compound structure": "COc1cc2c(=O)n(CCN(C)Cc3ccccc3)c3c4cc5c(cc4ncc3c2cc1OC)OCO5",
    "target entity": "DNA topoisomerase 1 (Homo sapiens) (UniProt P11387)",
    "bound sign": "=",
    "Activity": 15.8
  },
  {
    "compound structure": "COc1cc2c(=O)n(CCN3CCN(C)CC3)c3c4cc5c(cc4ncc3c2cc1OC)OCO5",
    "target entity": "DNA topoisomerase 1 (Homo sapiens) (UniProt P11387)",
    "bound sign": "=",
    "Activity": 1000
  },
  {
    "compound structure": "COc1cc2c(=O)n(CCNCc3ccccc3)c3c4cc5c(cc4ncc3c2cc1OC)OCO5",
    "target entity": "DNA topoisomerase 1 (Homo sapiens) (UniProt P11387)",
    "bound sign": "=",
    "Activity": 0.5
  },
  {
    "compound structure": "CCN(CCn1c(=O)c2cc(OC)c(OC)cc2c2cnc3cc4c(cc3c21)OCO4)C(C)C",
    "target entity": "DNA topoisomerase 1 (Homo sapiens) (UniProt P11387)",
    "bound sign": "=",
    "Activity": 0.17
  },
  {
    "compound structure": "COc1cc2c(=O)n(CCN(C)C(C)C)c3c4cc5c(cc4ncc3c2cc1OC)OCO5",
    "target entity": "DNA topoisomerase 1 (Homo sapiens) (UniProt P11387)",
    "bound sign": "=",
    "Activity": 0.03
  },
  {
    "compound structure": "COc1cc2c(=O)n(CCN(Cc3ccccc3)Cc3ccccc3)c3c4cc5c(cc4ncc3c2cc1OC)OCO5",
    "target entity": "DNA topoisomerase 1 (Homo sapiens) (UniProt P11387)",
    "bound sign": "=",
    "Activity": 15
  },
  {
    "compound structure": "COc1cc2c(=O)n(CCN(Cc3ccccc3)C(C)C)c3c4cc5c(cc4ncc3c2cc1OC)OCO5",
    "target entity": "DNA topoisomerase 1 (Homo sapiens) (UniProt P11387)",
    "bound sign": "=",
    "Activity": 7.4
  },
  {
    "compound structure": "COc1cc2c(=O)n(CCN(C)C)c3c4cc5c(cc4ncc3c2cc1OC)OCO5",
    "target entity": "DNA topoisomerase 1 (Homo sapiens) (UniProt P11387)",
    "bound sign": "=",
    "Activity": 0.3
  },
  {
    "compound structure": "CCN(CC)CCn1c(=O)c2cc(OC)c(OC)cc2c2cnc3cc4c(cc3c21)OCO4",
    "target entity": "DNA topoisomerase 1 (Homo sapiens) (UniProt P11387)",
    "bound sign": "=",
    "Activity": 1.4
  },
  {
    "compound structure": "COc1cc2c(=O)n(CCN(Cc3ccccc3)C(C)(C)C)c3c4cc5c(cc4ncc3c2cc1OC)OCO5",
    "target entity": "DNA topoisomerase 1 (Homo sapiens) (UniProt P11387)",
    "bound sign": ">",
    "Activity": 1000
  },
  {
    "compound structure": "COc1cc2c(=O)n(CCN3CCNCC3)c3c4cc5c(cc4ncc3c2cc1OC)OCO5",
    "target entity": "DNA topoisomerase 1 (Homo sapiens) (UniProt P11387)",
    "bound sign": "=",
    "Activity": 4.3
  },
  {
    "compound structure": "COc1cc2c(=O)n(CCNC(C)(C)C)c3c4cc5c(cc4ncc3c2cc1OC)OCO5",
    "target entity": "DNA topoisomerase 1 (Homo sapiens) (UniProt P11387)",
    "bound sign": "=",
    "Activity": 0.1
  },
  {
    "compound structure": "CCN(CCn1c(=O)c2cc(OC)c(OC)cc2c2cnc3cc4c(cc3c21)OCO4)Cc1ccccc1",
    "target entity": "DNA topoisomerase 1 (Homo sapiens) (UniProt P11387)",
    "bound sign": "=",
    "Activity": 12.3
  }
]
